- ASSAY EXPLANATION: compound effects on multiple myeloma cell viability – MM1S, calcein-AM fluorescence, 48 h, basal, profiling panel (AID 1165);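 further: viability of MM1S multiple myeloma cells under basal unstimulated conditions; test concentration not given here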
- PARTICULARS: higher = more signal
Reported z-score values follow for various compounds

COMPOUND | z-score
C=C(/C(=C/C[C@@H](OC(=O)c1ccncc1)c1ccccc1OCCO)c1cnc2ccccc2c1)C(C)C | -3.1
CN(C)CCCC[C@@H]1NC(=O)[C@H]2C[C@@H](C(=O)NCCCCCCNC(=O)CS)[C@@H](c3ccc(O)cc3)N2C1=O | -0.245
C[C@H]1NC(=O)C([C@@H](C)OCc2ccccc2)NC(=O)[C@@]23C(=O)N[C@@H](Cc4ccccc4)C2[C@H](C)[C@@]2(C)O[C@H]2C3/C=C/CC/C=C/CNC1=O (stereo partly specified) | -0.728
[N-]=[N+]=Nc1ccccc1[C@H]1OC(c2ccc(OCCCO)cc2)=N[C@@]1(Cc1ccccc1)C(=O)NCc1ccccc1 | -1.04
C=CC[C@@]1(C(=O)NCCN2CCOCC2)N=C(c2ccc(OCCCO)cc2)O[C@@H]1c1ccccc1 | 0.672
C=CCOC(=O)[C@@H]1[C@H]2C(=O)O[C@H](c3ccccc3)[C@H](c3ccccc3)N2[C@H](c2ccc(OCCOC(=O)[C@H]3C[C@H]4C(=O)N[C@@H](Cc5ccccc5)C(=O)N4[C@H]3c3cccc(OCCO)c3)cc2)[C@@]12C(=O)Nc1ccc(I)cc12 | -3.18
